Measured EC50, listed per entry.
Target: hKv7.2/hKv7.3 (Homo sapiens, UniProt O43525+O43526)
Construct: P2A self-cleaving peptide (between Kv7.3 and Kv7.2; the remnant would stay on the upstream protein) (C)
Assay: Thallium influx assay for potassium channel activation
Conditions: HEK-hKv7.2/hKv7.3 cells; FLIPR Potassium Assay kit; AUC readout normalized to a reference compound
Protocol: A synthesized cDNA fragment encoding human Kv7.3 and human Kv7.2 separated by a P2A sequence was inserted into the pcDNA5/FRT/TO vector using the BamHI and XhoI restriction sites. […] On the assay day, the medium was removed after which 50 uL/well of test compound diluted to 2× final concentration in HBSS containing 20 mM HEPES, and 50 uL/well of 2× dye load buffer were added. […] Compound effect was quantified using AUC as readout and normalized to a reference compound, which was included on each plate.
Readout label: EC50 (nM)

{"columns": ["Compound", "Observed measurement"],
 "data": [
  ["CCC[C@H](NC(=O)CC(O)C1CC(F)(F)C1)c1cccc(OC(F)F)c1 (single isomer, unassigned) [Example 7b]", 25000],
  ["CC(C)(C)[C@@H](O)CC(=O)N[C@@H](CCC#N)c1cccc(OC(F)(F)F)c1 [Example 25]", 1900],
  ["CC(C)(C)[C@@H](O)CC(=O)N[C@@H](COC1CC1)c1cccc(OC(F)F)c1 [Example 17]", 1500],
  ["O=C(CC1(O)CC(F)(F)C1)N[C@@H](CCC(F)F)c1cccc(OC(F)F)c1 [Example 32]", 2500],
  ["CC(C)C(C)(O)CC(=O)N[C@@H](COC(F)F)c1cccc(OC(F)F)c1 (single isomer, unassigned) [Example 14b]", 1300],
  ["O=C(CC(O)C1CC(F)(F)C1)N[C@@H](COC(F)F)c1cccc(OC(F)F)c1 (single isomer, unassigned) [Example 5a]", 1200],
  ["COC[C@H](NC(=O)C[C@@](C)(O)C1(F)CC1)c1cccc(OC(F)(F)F)c1 (single isomer, unassigned) [Example 36b]", 16000]
]}
